Test system: B. cereus 95/3032
Test: microbe, parasite or virus in culture
Assay type: cell-based
Conditions: Bacillus cereus
Assignment: determine reported MIC for the given molecules.
The reply should contain only the number, in µg/mL.

stdin: Fill in MIC for record CC[C@H]1OC(=O)[C@H](C)[C@@H](O[C@H]2C[C@@](C)(OC)[C@@H](O)[C@H](C)O2)[C@H](C)[C@@H](O[C@@H]2O[C@H](C)C[C@H](N(C)C)[C@H]2O)[C@](C)(O)C[C@@H](C)C(=O)[C@H](C)[C@@H](O)[C@]1(C)O [Erythromycin]
stdout: 0.125

stdin: Name the recorded MIC of the molecule listed here: CCC[C@@H]1C[C@@H](C(=O)N[C@@H]([C@H]2O[C@H](SC)[C@H](O)[C@@H](O)[C@H]2O)[C@H](C)Cl)N(C)C1 [Clindamycin]
stdout: 0.5

stdin: Name the recorded MIC of the molecule listed here: CN[C@H](CC(C)C)C(=O)N[C@H]1C(=O)N[C@@H](CC(N)=O)C(=O)N[C@H]2C(=O)N[C@H]3C(=O)N[C@H](C(=O)N[C@H](C(=O)O)c4cc(O)cc(O)c4-c4cc3ccc4O)[C@H](O)c3ccc(c(Cl)c3)Oc3cc2cc(c3O[C@@H]2O[C@H](CO)[C@@H](O)[C@H](O)[C@H]2O[C@H]2C[C@](C)(N)[C@H](O)[C@H](C)O2)Oc2ccc(cc2Cl)[C@H]1O [Vancomycin]
stdout: 1
